The reported measurements were obtained from patent US7238711.

molecular target: chemokine receptors on THP-1 cells; assay: binding to THP-1 cells (given as association constant)
pKd: −log10 of the molar value. No end group written: not given here.
reported_property: pKd

Just so you know, measured pKd for CQIWKQKPDLC (not fully specified (some residues, bridges); cysteine pairing not given here) [CRD-Cys13Leu4Ile11 peptide 3(3-12)[MCP-1]] came out at 6.30 to 7.00
